System: Daudi cells
Conditions: read-out: IC50 (cytotoxicity), 72 hours
*1 amine or outer side, *2 acyl side, *3 side chain or, on linkers, in order; H or OH if unused. Where a SMILES comes first, the peptide text is derived from it. [ ]: non-standard residue; d: D form. The star is where a group is joined. Dolaproine = CO[C@@H]([C@@H]1CCCN1)[C@@H](C)C(=O)O; Hexanoyl(6-maleimido) = O=C1C=CC(=O)N1CCCCCC(=O)*; Dil = CC[C@H](C)[C@H](NC)[C@@H](CC(=O)O)OC; PABC = O=C(OCc1ccc(N[*:1])cc1)[*:2]; X1 = C[C@@H](N*)[C@@H](O)c1ccccc1; Cit = NC(=O)NCCC[C@H](N)C(=O)O; NMeV = CN[C@H](C(=O)O)C(C)C
ENDPOINT LABEL: IC50 (nM)
Give a bare numeral; the unit nM is implied.

May I ask what IC50 has been recorded for CC[C@H](C)[C@@H]([C@@H](CC(=O)N1CCC[C@H]1[C@H](OC)[C@@H](C)C(=O)N[C@H](C)[C@@H](O)c1ccccc1)OC)N(C)C(=O)[C@@H](NC(=O)[C@H](C(C)C)N(C)C(=O)OCc1ccc(NC(=O)[C@H](CCCNC(N)=O)NC(=O)[C@@H](NC(=O)CCCCCN2C(=O)C=CC2=O)C(C)C)cc1)C(C)C [vcMMAE] ({Hexanoyl(6-maleimido)}-V[Cit][PABC][NMeV]V[Dil][Dolaproine]-X1) ? 80

* * *

Tested on: Raji cells
Conditions: read-out: IC50 (cytotoxicity), 72 hours
*1 amine or outer side, *2 acyl side, *3 side chain or, on linkers, in order; H or OH if unused. Where a SMILES comes first, the peptide text is derived from it. [ ]: non-standard residue; d: D form. The star is where a group is joined. Dolaproine = CO[C@@H]([C@@H]1CCCN1)[C@@H](C)C(=O)O; Hexanoyl(6-maleimido) = O=C1C=CC(=O)N1CCCCCC(=O)*; Dil = CC[C@H](C)[C@H](NC)[C@@H](CC(=O)O)OC; PABC = O=C(OCc1ccc(N[*:1])cc1)[*:2]; X1 = C[C@@H](N*)[C@@H](O)c1ccccc1; Cit = NC(=O)NCCC[C@H](N)C(=O)O; NMeV = CN[C@H](C(=O)O)C(C)C
ENDPOINT LABEL: pIC50
Schema: pIC50 number; meaning minus log10 of the concentration expressed in molar units.

May I ask what pIC50 has been recorded for CC[C@H](C)[C@@H]([C@@H](CC(=O)N1CCC[C@H]1[C@H](OC)[C@@H](C)C(=O)N[C@H](C)[C@@H](O)c1ccccc1)OC)N(C)C(=O)[C@@H](NC(=O)[C@H](C(C)C)N(C)C(=O)OCc1ccc(NC(=O)[C@H](CCCNC(N)=O)NC(=O)[C@@H](NC(=O)CCCCCN2C(=O)C=CC2=O)C(C)C)cc1)C(C)C [vcMMAE] ({Hexanoyl(6-maleimido)}-V[Cit][PABC][NMeV]V[Dil][Dolaproine]-X1) ? 6.80
